Each recorded value in this set is attributed to patent US20230340011A1.

// values below are reported pIC50
Study Target: SREBP-2 (Homo sapiens (Human), UniProt Q12772)
Assay Details: In vitro assay SREBP-2: PathHunter U2OS SREBP-2 Nuclear Translocation Cell Line, U18666A-stimulated
Assay type: cell-based
Reported Conditions: PathHunter U2OS SREBP-2 nuclear translocation cells, U18666A 10 μM, overnight (16 hours)
pIC50: −log10 of the molar value.

{"columns": ["Molecule", "Recorded Measurement"],
 "data": [
  ["Cc1cncc(O[C@@H](C)[C@H]2CC[C@H]3[C@@H]4CC=C5C[C@@H](O)CC[C@]5(C)[C@H]4CC[C@]23C)c1", "> 6.60"],
  ["CC(C)OC(=O)N1CCN(C(=O)CC[C@@H](C)[C@H]2CC[C@H]3[C@@H]4CC=C5C[C@@H](O)CC[C@]5(C)[C@H]4CC[C@]23C)C[C@@H]1C", "> 6.60"],
  ["CC(=O)N1CCC2(C1)CN(C(=O)CC[C@@H](C)[C@H]1CC[C@H]3[C@@H]4CC=C5C[C@@H](O)CC[C@]5(C)[C@H]4CC[C@]13C)C2", "6.00 to 6.60"]
]}

Query: Request the reported pIC50 associated with C=CCN1C[C@H]2CON(C(=O)CC[C@@H](C)[C@H]3CC[C@H]4[C@@H]5CC=C6C[C@@H](O)CC[C@]6(C)[C@H]5CC[C@]34C)[C@H]2C1 [Example 44]
Response: 6.00 to 6.60

Query: Request the reported pIC50 associated with C[C@H](CCC(=O)N(C)C)[C@H]1CC[C@H]2[C@@H]3CC=C4C[C@@H](O)CC[C@]4(C)[C@H]3[C@@H](O)C[C@]12C
Response: 6.00 to 6.60

Query: Request the reported pIC50 associated with C[C@H](CCc1ccccn1)[C@H]1CC[C@H]2[C@@H]3CC=C4C[C@@H](O)CC[C@]4(C)[C@H]3CC[C@]12C
Response: > 6.60
